Kindly supply the reported abundance fitness values for the records listed here.
B1: 1-phosphatidylinositol 4,5-bisphosphate phosphodiesterase gamma-2, residues 772 to 827; numbered along this chain, P16885 (parent)
chain: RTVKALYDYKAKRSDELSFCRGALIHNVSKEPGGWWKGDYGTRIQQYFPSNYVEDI

# Variants of: B1
# assay.name: abundance fitness (aPCA) (normalised: wild type 0, dead -1); higher = more abundant; growth selection in yeast, the domain comes from the species named
# condition.set: Homo sapiens
Would you mind answering with just the numeric figure?

Item under review: K12W . Reported abundance fitness? -0.369

Item under review: Y40S . Reported abundance fitness? -0.284

Item under review: L6V . Reported abundance fitness? -0.356

Item under review: W36I . Reported abundance fitness? -0.611

Item under review: W36Q . Reported abundance fitness? -0.839

Item under review: L6E . Reported abundance fitness? -0.631

Item under review: N51M . Reported abundance fitness? -0.232

Item under review: R21S . Reported abundance fitness? -0.285

Item under review: H26G . Reported abundance fitness? -0.43

Item under review: Q46T . Reported abundance fitness? -0.391

Item under review: C20F . Reported abundance fitness? -0.17

Item under review: Y52K . Reported abundance fitness? -0.138

Item under review: G34K . Reported abundance fitness? 0.024

Item under review: S14E . Reported abundance fitness? -0.206

Item under review: V53A . Reported abundance fitness? -0.442

Item under review: G34H . Reported abundance fitness? -0.101

Item under review: G22E . Reported abundance fitness? -0.418

Item under review: K37T . Reported abundance fitness? -0.32
